Can you tell me percent growth inhibition, RWP1 2 μg/ml for the items I'm about to list?
Test system: RWP1 cells
Assay Protocol: Effect of anti-FZD5 Fabs on proliferation of pancreatic cancer cell lines (percent growth inhibition)
Assay type: cell-based, human
Run Parameters: Fab 2 μg/ml
One number for each entry, in %.

Molecule	percent growth inhibition, RWP1 2 μg/ml / %
Fab-2921: anti-FZD5 Fab with antibody variable region Fv-2921; CDR SEQ ID NOs: 35, 36, 60, 98, 136, 162 (antibody, V domains shown) VH: EVQLVESGGGLVQPGGSLRLSCAASGFNISYYYIHWVRQAPGKGLEWVASIYPSSGSTSYADSVKGRFTISADTSKNTAYLQMNSLRAEDTAVYYCARGAMDYWGQGTLVTVSS VL: DIQMTQSPSSLSASVGDRVTITCRASQSVSSAVAWYQQKPGKAPKLLIYSASSLYSGVPSRFSGSRSGTDFTLTISSLQPEDFATYYCQQWYAGSLITFGQGTKVEIK	−4.47

# return percent growth inhibition, RWP1 2 μg/ml for each item in the list
1. Fab-2907: anti-FZD5 Fab with antibody variable region Fv-2907; CDR SEQ ID NOs: 35, 36, 46, 85, 122, 159 (antibody, V domains shown) VH: EVQLVESGGGLVQPGGSLRLSCAASGFNIYSSYMHWVRQAPGKGLEWVASISSYSGSTYYADSVKGRFTISADTSKNTAYLQMNSLRAEDTAVYYCARSSWGAYIVSYGFDYWGQGTLVTVSS VL: DIQMTQSPSSLSASVGDRVTITCRASQSVSSAVAWYQQKPGKAPKLLIYSASSLYSGVPSRFSGSRSGTDFTLTISSLQPEDFATYYCQQVGYWWGLITFGQGTKVEIK
2. Fab-2915: anti-FZD5 Fab with antibody variable region Fv-2915; CDR SEQ ID NOs: 35, 36, 54, 93, 130, 166 (antibody, V domains shown) VH: EVQLVESGGGLVQPGGSLRLSCAASGFNIYYYSMHWVRQAPGKGLEWVASIYSSYGYTSYADSVKGRFTISADTSKNTAYLQMNSLRAEDTAVYYCARGYHYYPYYSGLDYWGQGTLVTVSS VL: DIQMTQSPSSLSASVGDRVTITCRASQSVSSAVAWYQQKPGKAPKLLIYSASSLYSGVPSRFSGSRSGTDFTLTISSLQPEDFATYYCQQAYYHSLITFGQGTKVEIK
3. Fab-2912: anti-FZD5 Fab with antibody variable region Fv-2912; CDR SEQ ID NOs: 35, 36, 51, 90, 127, 164 (antibody, V domains shown) VH: EVQLVESGGGLVQPGGSLRLSCAASGFNISYSYIHWVRQAPGKGLEWVASISSSSGYTSYADSVKGRFTISADTSKNTAYLQMNSLRAEDTAVYYCARTVRGSKKPYFSGWAMDYWGQGTLVTVSS VL: DIQMTQSPSSLSASVGDRVTITCRASQSVSSAVAWYQQKPGKAPKLLIYSASSLYSGVPSRFSGSRSGTDFTLTISSLQPEDFATYYCQQFYFPYLITFGQGTKVEIK
4. Fab-2927: anti-FZD5 Fab with antibody variable region Fv-2927; CDR SEQ ID NOs: 35, 36, 66, 104, 142, 174 (antibody, V domains shown) VH: EVQLVESGGGLVQPGGSLRLSCAASGFNIYYSSMHWVRQAPGKGLEWVASIYPSYGYTSYADSVKGRFTISADTSKNTAYLQMNSLRAEDTAVYYCARYGYYGFDYWGQGTLVTVSS VL: DIQMTQSPSSLSASVGDRVTITCRASQSVSSAVAWYQQKPGKAPKLLIYSASSLYSGVPSRFSGSRSGTDFTLTISSLQPEDFATYYCQQWGSHGYLITFGQGTKVEIK
5. Fab-2898: anti-FZD5 Fab with antibody variable region Fv-2898; CDR SEQ ID NOs: 35, 36, 37, 76, 113, 152 (antibody, V domains shown) VH: EVQLVESGGGLVQPGGSLRLSCAASGFNIYSYSMHWVRQAPGKGLEWVASIYSSSGSTSYADSVKGRFTISADTSKNTAYLQMNSLRAEDTAVYYCARAVWGLDYWGQGTLVTVSS VL: DIQMTQSPSSLSASVGDRVTITCRASQSVSSAVAWYQQKPGKAPKLLIYSASSLYSGVPSRFSGSRSGTDFTLTISSLQPEDFATYYCQQWWGYYSLITFGQGTKVEIK
6. Fab-2930: anti-FZD5 Fab with antibody variable region Fv-2930; CDR SEQ ID NOs: 35, 36, 69, 107, 145, 153 (antibody, V domains shown) VH: EVQLVESGGGLVQPGGSLRLSCAASGFNLSYYYIHWVRQAPGKGLEWVASIYPYSGSTSYADSVKGRFTISADTSKNTAYLQMNSLRAEDTAVYYCARGALDYWGQGTLVTVSS VL: DIQMTQSPSSLSASVGDRVTITCRASQSVSSAVAWYQQKPGKAPKLLIYSASSLYSGVPSRFSGSRSGTDFTLTISSLQPEDFATYYCQQWYGPYLITFGQGTKVEIK
7. Fab-2913: anti-FZD5 Fab with antibody variable region Fv-2913; CDR SEQ ID NOs: 35, 36, 52, 91, 128, 165 (antibody, V domains shown) VH: EVQLVESGGGLVQPGGSLRLSCAASGFNISYSSIHWVRQAPGKGLEWVASIYPYSSSTSYADSVKGRFTISADTSKNTAYLQMNSLRAEDTAVYYCARYGYYGLDYWGQGTLVTVSS VL: DIQMTQSPSSLSASVGDRVTITCRASQSVSSAVAWYQQKPGKAPKLLIYSASSLYSGVPSRFSGSRSGTDFTLTISSLQPEDFATYYCQQWGVSHYLFTFGQGTKVEIK

1: 8.52; 2: 48.66; 3: 15.55; 4: 46.02; 5: 21.46; 6: 17.91; 7: 59.79
